Attribution: PubChem BioAssay AID1053133

experiment.description: blocks a specific stage of Vaccinia orthopoxvirus infection, primary screen, cell-based, single point (AID 1053133)
details: Vaccinia-infected cells, mCherry/Venus stage reporter fluorescence, hits give low values, concentration not given here
The campaign covered roughly 89,000 compounds. About 10 (0.01%) were called active. Roughly 10% stayed inconclusive and do not appear here. These entries were drawn from the full list.
recorded.endpoint: activity change (mCherry) (%)
# output: bare number, implied unit %

Here's what some known entries look like.
compound.smiles | measurement
Cc1ccc(S(=O)(=O)NCC[C@@H]2CC[C@@H](NC(=O)CCN3CCCCC3)[C@@H](CO)O2)cc1 | 18.4
CCC(=O)N1CCC2(CC1)CN(Cc1cc(F)ccc1F)[C@@H](CO)c1c2c2ccc(OC)cc2n1C | 15.8

Task item: Request the reported activity change (mCherry) associated with `COc1ccc2c3c([nH]c2c1)[C@@H](CO)N(Cc1ccccc1F)CC31CN(C(=O)C2CC2)C1`
Reply: 12.9

Task item: Request the reported activity change (mCherry) associated with `O=C(C[C@@H]1C[C@H]2c3cc(NC(=O)NC4CCCCC4)ccc3O[C@H]2[C@H](CO)O1)NCc1ccncc1`
Reply: -4.22

Task item: Request the reported activity change (mCherry) associated with `COc1ccc2c3c(n(C)c2c1)[C@@H](CO)N(S(C)(=O)=O)CC31CCN(C(=O)C2CCC2)CC1`
Reply: -2.22

Task item: Request the reported activity change (mCherry) associated with `O=C([C@@H]1[C@@H](CO)[C@@H]2Cn3c(ccc(C4=CCCC4)c3=O)[C@H]1N2C(=O)c1ccncc1)N1CCCCC1`
Reply: 10.1

Task item: Request the reported activity change (mCherry) associated with `CO[C@@H]1CC[C@H]2CCN(C)C(=O)C[C@@H](c3ccccc3)CN(C)C(=O)c3cc(C#N)ccc3OC[C@@H]1O2`
Reply: -7.23

Task item: Request the reported activity change (mCherry) associated with `CN(C)C(=O)c1cccc(-c2ccc3c(c2)[C@@H]2[C@@H](CCN2Cc2nccs2)[C@@H](CO)N3)c1`
Reply: -14.5

Task item: Request the reported activity change (mCherry) associated with `O=C(C[C@H]1C=C[C@@H](NC(=O)C2CCOCC2)[C@@H](CO)O1)NCC1CCCCC1`
Reply: 8.68

Task item: Request the reported activity change (mCherry) associated with `CCC(=O)N(C)C[C@@H]1Oc2cc(-c3ccc(C#N)cc3)ccc2S(=O)(=O)N([C@@H](C)CO)C[C@@H]1C`
Reply: -1.36

Task item: Request the reported activity change (mCherry) associated with `O=C(C1CCCCC1)N1CC2(C1)[C@H](c1ccccc1)[C@@H](CO)N2CCC(F)(F)F`
Reply: -9.06

Task item: Request the reported activity change (mCherry) associated with `CCNC(=O)[C@H]1[C@H](CO)[C@H]2Cn3c(ccc(/C=C/c4ccccc4)c3=O)[C@@H]1N2C(=O)C1CCC1`
Reply: 11.2

Task item: Request the reported activity change (mCherry) associated with `COC(=O)[C@@H]1[C@@H](CO)[C@@H]2Cn3c(ccc(C4=CCCC4)c3=O)[C@@H]2N1Cc1cncnc1`
Reply: 12.2

Task item: Request the reported activity change (mCherry) associated with `Cc1cc(C(=O)Nc2ccc3c(c2)C(=O)N(C)[C@@H]2CC[C@@H](CC(=O)NC4CCCC4)O[C@@H]2CO3)no1`
Reply: 8.19

Task item: Request the reported activity change (mCherry) associated with `O=C(C[C@@H]1CC[C@H]2[C@@H](COC[C@H](O)CN2Cc2ccc(F)cc2)O1)N1CCc2ccccc2C1`
Reply: -6.87

Task item: Request the reported activity change (mCherry) associated with `Cc1ccc(S(=O)(=O)N[C@@H]2CC[C@@H](CCn3cc(C(C)C)nn3)O[C@H]2CO)cc1`
Reply: -0.697
